- System: Staphylococcus aureus
- procedure details: Antibacterial activity against methicillin-susceptible Staphylococcus aureus isolate 1 by agar dilution method
- Type: functional
endpoint label: MIC

Past entries and their recorded results:
mol smiles | measured target | obs value
CC[C@H]1OC(=O)[C@H](C)C(=O)[C@H](C)[C@@H](O[C@@H]2O[C@H](C)C[C@H](N(C)C)[C@H]2O)[C@](C)(OC)C[C@@H](C)/C(=N\OC/C=C/c2ccc(OC)cc2)[C@H](C)[C@@H](O)[C@]1(C)O | Staphylococcus aureus | 2 µg/mL
CC[C@H]1OC(=O)[C@H](C)C(=O)[C@H](C)[C@@H](O[C@@H]2O[C@H](C)C[C@H](N(C)C)[C@H]2O)[C@](C)(OC)C[C@@H](C)/C(=N\OC/C=C/c2cnc3ccccc3c2)[C@H](C)[C@@H](O)[C@]1(C)O | Staphylococcus aureus | 0.25 µg/mL
CC[C@H]1OC(=O)[C@H](C)C(=O)[C@H](C)[C@@H](O[C@@H]2O[C@H](C)C[C@H](N(C)C)[C@H]2O)[C@](C)(OC)C[C@@H](C)/C(=N\OC/C=C/c2cccnc2)[C@H](C)[C@@H](O)[C@]1(C)O | Staphylococcus aureus | 0.25 µg/mL
CC[C@H]1OC(=O)[C@H](C)C(=O)[C@H](C)[C@@H](O[C@@H]2O[C@H](C)C[C@H](N(C)C)[C@H]2O)[C@](C)(OC)C[C@@H](C)/C(=N\OC/C=C/c2cccc(OC)c2)[C@H](C)[C@@H](O)[C@]1(C)O | Staphylococcus aureus | 2 µg/mL
CC[C@H]1OC(=O)[C@H](C)C(=O)[C@H](C)[C@@H](O[C@@H]2O[C@H](C)C[C@H](N(C)C)[C@H]2O)[C@](C)(OC)C[C@@H](C)/C(=N\OC/C=C/c2cccs2)[C@H](C)[C@@H](O)[C@]1(C)O | Staphylococcus aureus | 0.5 µg/mL

*Q* Give its MIC value. Item: CC[C@H]1OC(=O)[C@H](C)C(=O)[C@H](C)[C@@H](O[C@@H]2O[C@H](C)C[C@H](N(C)C)[C@H]2O)[C@](C)(OC)C[C@@H](C)/C(=N\OC/C=C/c2ccc3[nH]ccc3c2)[C@H](C)[C@@H](O)[C@]1(C)O
*A* 1 µg/mL

*Q* What does the record list as MIC for CC[C@H]1OC(=O)[C@H](C)C(=O)[C@H](C)[C@@H](O[C@@H]2O[C@H](C)C[C@H](N(C)C)[C@H]2O)[C@](C)(OC)C[C@@H](C)/C(=N\OC/C=C/c2cccc(C3OCCO3)c2)[C@H](C)[C@@H](O)[C@]1(C)O ?
*A* 1 µg/mL

*Q* Can you look up the measured MIC of CC[C@H]1OC(=O)[C@H](C)C(=O)[C@H](C)[C@@H](O[C@@H]2O[C@H](C)C[C@H](N(C)C)[C@H]2O)[C@](C)(OC)C[C@@H](C)/C(=N\OC/C=C/c2ccc3c(c2)CCC3=O)[C@H](C)[C@@H](O)[C@]1(C)O for me?
*A* 1 µg/mL

*Q* Sample CC[C@H]1OC(=O)[C@H](C)C(=O)[C@H](C)[C@@H](O[C@@H]2O[C@H](C)C[C@H](N(C)C)[C@H]2O)[C@](C)(OC)C[C@@H](C)/C(=N\OC/C=C/c2cncc3ccccc23)[C@H](C)[C@@H](O)[C@]1(C)O — what was its MIC?
*A* 1 µg/mL
